The values you see were collected from paper PMC11125018.

biological target: CB1 receptor (Homo sapiens, UniProt P21554); construct: host or cells: CHO-K1; assay: cell-based; type: cell-based; settings: read-out: IC50
Sequence (P21554 whole entry): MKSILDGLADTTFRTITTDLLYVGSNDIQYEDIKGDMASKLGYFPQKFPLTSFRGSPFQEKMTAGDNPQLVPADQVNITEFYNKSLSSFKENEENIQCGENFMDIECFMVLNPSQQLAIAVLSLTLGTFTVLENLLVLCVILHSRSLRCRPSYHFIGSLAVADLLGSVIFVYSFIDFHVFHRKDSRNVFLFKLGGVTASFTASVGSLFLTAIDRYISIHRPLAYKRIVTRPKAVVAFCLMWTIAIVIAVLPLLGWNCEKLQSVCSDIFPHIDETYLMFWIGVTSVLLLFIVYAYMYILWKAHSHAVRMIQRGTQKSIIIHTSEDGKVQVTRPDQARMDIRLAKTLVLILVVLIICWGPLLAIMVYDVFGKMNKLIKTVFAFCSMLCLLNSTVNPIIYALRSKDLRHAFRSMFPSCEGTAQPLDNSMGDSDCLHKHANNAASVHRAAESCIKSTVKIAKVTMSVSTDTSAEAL
Endpoint label: pIC50
The read-out pIC50 is expressed as -log10 of concentration in moles per litre.

Query :: Given the entry Cc1c(C(=O)NN2CCOCC2)nn(-c2ccc(Cl)cc2Cl)c1-c1ccc(I)cc1 [AM-281, reference compound] , report its measured pIC50.
Result :: 7.75
